target: Toll-like receptor 3 (Homo sapiens) (UniProt O15455); assay: Agonist activity at human TLR3 expressed in HEK293 cells assessed as induction of NF-kappaB activity by measuring extracellular secreted alkaline phosphatase up to 250 uM by HEK-blue reporter gene assay; assay type: functional, cell-based
Sequence (O15455 whole entry): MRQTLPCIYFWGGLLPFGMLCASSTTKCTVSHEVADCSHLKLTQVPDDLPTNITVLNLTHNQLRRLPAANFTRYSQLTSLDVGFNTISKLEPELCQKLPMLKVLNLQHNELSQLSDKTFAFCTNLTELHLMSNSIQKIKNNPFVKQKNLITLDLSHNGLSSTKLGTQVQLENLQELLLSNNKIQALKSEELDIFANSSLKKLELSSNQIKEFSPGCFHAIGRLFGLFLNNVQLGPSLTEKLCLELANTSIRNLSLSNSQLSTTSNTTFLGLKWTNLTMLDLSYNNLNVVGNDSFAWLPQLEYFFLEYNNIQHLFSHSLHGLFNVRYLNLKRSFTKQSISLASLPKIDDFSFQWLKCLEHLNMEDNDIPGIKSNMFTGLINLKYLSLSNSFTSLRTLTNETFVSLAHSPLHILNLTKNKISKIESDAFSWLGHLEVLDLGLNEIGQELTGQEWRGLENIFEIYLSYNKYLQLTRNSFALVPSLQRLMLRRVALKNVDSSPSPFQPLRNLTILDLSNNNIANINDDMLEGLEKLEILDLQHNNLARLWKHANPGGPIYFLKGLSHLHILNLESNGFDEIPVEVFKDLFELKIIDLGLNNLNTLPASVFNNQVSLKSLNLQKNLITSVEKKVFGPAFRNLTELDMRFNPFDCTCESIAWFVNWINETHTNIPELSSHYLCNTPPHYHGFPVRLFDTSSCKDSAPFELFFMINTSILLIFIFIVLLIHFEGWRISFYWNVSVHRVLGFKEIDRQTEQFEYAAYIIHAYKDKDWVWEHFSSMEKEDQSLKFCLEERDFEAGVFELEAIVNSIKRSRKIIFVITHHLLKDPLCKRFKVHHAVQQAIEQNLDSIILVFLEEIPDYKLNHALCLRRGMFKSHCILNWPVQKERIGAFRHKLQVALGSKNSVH
The source made the active and inactive calls. No cut-off for these calls is given here.
PROPERTY NAME: Activity

1) c1ccc(CNc2c(-c3ccncc3)nc3ccccn23)cc1 :: inactive
2) c1ccc(CNc2c(-c3ccncc3)nc3cnccn23)cc1 :: inactive
3) CCCCc1nc2c(N)nccn2c1NCc1ccccc1 :: inactive
4) Oc1ccccc1-c1nc2cnccn2c1NC1CCCCC1 :: inactive
5) c1cc(-c2nc3cnccn3c2NC2CCCCC2)ccn1 :: inactive

IN: Hi! What's the reported Activity for Oc1ccccc1-c1nc2cnccn2c1NCc1ccccc1 on Toll-like receptor 3 (Homo sapiens) (UniProt O15455)?
OUT: inactive

IN: Subsequent entry: CC(C)(C)Nc1c(-c2ccncc2)nc2cnccn12
OUT: inactive

IN: Subsequent entry: CC(C)(C)Nc1c(-c2ccccc2O)nc2cnccn12
OUT: inactive

IN: Subsequent entry: Nc1nccn2c(NC3CCCCC3)c(-c3ccc(-c4ccccc4)cc3)nc12
OUT: inactive

====

Target: UniProtKB Q9NR97
Sequence (Q9NR97 whole entry): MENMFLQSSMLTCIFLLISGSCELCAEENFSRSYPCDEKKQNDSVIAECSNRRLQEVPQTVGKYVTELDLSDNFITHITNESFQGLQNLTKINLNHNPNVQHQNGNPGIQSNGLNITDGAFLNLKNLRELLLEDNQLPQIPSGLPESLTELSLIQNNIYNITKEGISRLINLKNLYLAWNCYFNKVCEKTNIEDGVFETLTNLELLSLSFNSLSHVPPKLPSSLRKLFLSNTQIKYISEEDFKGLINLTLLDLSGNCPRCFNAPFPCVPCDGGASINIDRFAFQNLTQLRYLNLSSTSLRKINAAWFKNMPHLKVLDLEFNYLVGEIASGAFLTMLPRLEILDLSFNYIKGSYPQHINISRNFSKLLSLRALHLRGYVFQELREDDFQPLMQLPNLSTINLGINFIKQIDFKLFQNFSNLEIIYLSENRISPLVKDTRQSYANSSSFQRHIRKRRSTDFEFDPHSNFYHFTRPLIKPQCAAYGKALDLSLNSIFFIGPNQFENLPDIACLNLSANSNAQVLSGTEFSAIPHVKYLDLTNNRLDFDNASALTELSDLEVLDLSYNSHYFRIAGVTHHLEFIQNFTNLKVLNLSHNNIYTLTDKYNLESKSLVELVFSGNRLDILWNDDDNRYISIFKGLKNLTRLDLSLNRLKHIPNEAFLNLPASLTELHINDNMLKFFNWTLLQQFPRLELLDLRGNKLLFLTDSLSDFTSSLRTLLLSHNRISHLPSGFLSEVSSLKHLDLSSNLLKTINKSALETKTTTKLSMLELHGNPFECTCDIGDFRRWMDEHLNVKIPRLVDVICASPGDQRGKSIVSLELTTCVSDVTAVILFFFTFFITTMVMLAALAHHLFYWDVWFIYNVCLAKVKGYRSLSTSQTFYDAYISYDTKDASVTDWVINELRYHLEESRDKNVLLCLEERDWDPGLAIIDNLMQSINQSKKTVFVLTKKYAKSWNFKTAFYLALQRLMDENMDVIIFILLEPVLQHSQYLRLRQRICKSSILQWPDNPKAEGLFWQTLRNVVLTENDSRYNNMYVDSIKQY
Assay: Agonist activity at human TLR8 expressed in HEK293 cells assessed as induction of NF-kappaB activity by measuring extracellular secreted alkaline phosphatase by HEK-blue reporter gene assay
Type: functional, cell-based
Details: read-out: EC50
Catalogue of molecules with associated EC50
Write the answer as a number in µM, unit excluded.

1. Cc1ncc(CO)c2c(Nc3ccccn3)c(NCCC(=O)OC(C)(C)C)oc12 :: 7.64
2. CCCCNc1oc2c(C)ncc(CO)c2c1Nc1ccccn1 :: 9.38

IN: Need EC50 of Cc1ncc(CO)c2c(Nc3ccccn3)c(N[C@@H](C)c3ccccc3)oc12 , thanks.
OUT: 4.27

IN: Subsequent entry: Cc1ncc(CO)c2c(Nc3cnccn3)c(NCc3ccccc3)oc12
OUT: 9.79

IN: Subsequent entry: CCCC(C)Nc1oc2c(C)ncc(CO)c2c1Nc1ccccn1 (stereo not given)
OUT: 9.01
